Listing of recorded protein stability index by entry.
B1: TRIM55 (parent)
chain: FQMEKIEHGYENMNHFTVNLNREE

- Variants of: B1
- Protocol text: protein stability index of a GFP-peptide fusion (GPS, HEK-293T) (PSI 1-6); higher = more stable;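 also: lentivirally expressed fusions sorted by FACS into six bins by GFP to DsRed ratio, PSI derived from sequencing read proportions per bin multiplied by bin number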
- Assay setup: c terminus: a fixed tail appended

# Mutation string, protein stability index
rows = [
    ("E7K", 2.05),
    ("E24L", 3.02),
    ("G9R", 2.91),
]
